Assignment: determine reported log10(IC50) for the given compounds.
# testDetails: Inhibition of MERS-CoV 3CLpro using FAM-SAVLQ as substrate preincubated with enzyme for 1 hr followed by susbtrate addition and measured after 1 hr by FRET assay
# Parameters: species or system Middle East respiratory syndrome-related coronavirus
Please keep in mind that the values are log10 of IC50 expressed in nM.

log10(IC50) measured on CC(C)C[C@H](NC(=O)OCC(C)(C)Oc1ccccc1)C(=O)N[C@@H](C[C@@H]1CCNC1=O)C(O)S(=O)(=O)O (some centres not stated) = 1.30

log10(IC50) measured on `CC(C)C[C@H](NC(=O)OCC(C)(C)Sc1cccc(Cl)c1)C(=O)N[C@H](C=O)C[C@@H]1CCNC1=O` = 2.04

log10(IC50) measured on `CC(C)C[C@H](NC(=O)OCCSc1ccccc1)C(=O)N[C@H](C=O)C[C@@H]1CCNC1=O` = 2.15

log10(IC50) measured on `CC(C)C[C@H](NC(=O)OCC(C)(C)Sc1nc2ccccc2[nH]1)C(=O)N[C@H](C=O)C[C@@H]1CCNC1=O` = 2.08

log10(IC50) measured on CC(C)C[C@H](NC(=O)OCC(C)(C)[S+]([O-])c1ccccc1)C(=O)N[C@H](C=O)C[C@@H]1CCNC1=O (mixture of isomers) = 2.28

log10(IC50) measured on CC(C)C[C@H](NC(=O)OCC(C)(C)Sc1cccc(Cl)c1)C(=O)N[C@@H](C[C@@H]1CCNC1=O)C(O)S(=O)(=O)O (some centres not stated) = 2.00

log10(IC50) measured on `CC(C)C[C@H](NC(=O)OCC(C)(C)Sc1ccccc1)C(=O)N[C@H](C#N)C[C@@H]1CCNC1=O` = 2.61

Measured values drawn from ChEMBL document CHEMBL5325428 for this set.
